System: T-47D breast
test_method_notes: NCI-60 one-dose screen, 48 h (100 = growth as untreated, 0 = no growth, -100 = all killed)
experimental_context: 10 µM unless noted
The panel holds about 83,000 compounds, 20% with a hit somewhere; the sample as a whole holds those more often. Active and inactive are the calls of the source. The calls were made as follows: active = growth percent below 10; inactive = the rest.
test_readout: growth

Data request: What reported growth corresponds to "Clc1ccc(Nc2scc3[n+]2CCC3)cc1" on T-47D breast?
Data returned: 89.7% (inactive)

Data request: Okay, and CSc1nc2c(c(=O)[nH]1)N=C1c3ccccc3C(=O)C1C(c1ccccc1)N2 (stereo not drawn) ?
Data returned: 43.9% (inactive)

Data request: Likewise for "CCCCc1ccc(NS(=O)(=O)c2cc3c4c(c2)CCN4C(=O)CC3)cc1" ?
Data returned: 25.4% (inactive)

====

Tested on: A549/ATCC NSCLC
test_method_notes: NCI-60 one-dose screen, 48 h (100 = growth as untreated, 0 = no growth, -100 = all killed)
experimental_context: 10 µM unless noted
Compounds without any hit were thinned out: in the full panel of roughly 83,000, 20% have a hit. The source made the active and inactive calls. The calls were made as follows: active = growth percent below 10; inactive = the rest.
test_readout: growth

Data request: Give the measured growth of "O=c1c2cc(F)ccc2sc2c(NCCCNCCO)nc3ccc(Cl)cc3c12" .
Data returned: 57.7% (inactive)

Data request: Next record, please: CCCCCCC(O)(c1ccc(F)cc1)C(CN1CCOCC1)c1ccccc1 (centres undefined)
Data returned: 23.9% (inactive)

Data request: Next record, please: "O=C(Nc1ccc(-c2nc3cc4ccccc4cc3[nH]2)cc1)c1cccc(Br)c1"
Data returned: 27% (inactive)

Data request: // same read-out, input: "O=C(O)CCC(=O)c1ccc(C2CCCCCC2)cc1"
Data returned: 99.6% (inactive)

====

System: LOX IMVI melanoma
test_method_notes: NCI-60 one-dose screen, 48 h
experimental_context: 10 µM unless noted
The panel holds about 83,000 compounds, 20% with a hit somewhere; the sample as a whole holds those more often. Calls of active or inactive are those of the source. Rule for the calls: active = growth percent below 10; inactive = the rest.
Permitted responses: active, inactive

See these solved cases before continuing.
Clc1ccc(Oc2ccc(Nc3ncnc4onc(-c5ccccc5)c34)cc2)c(Cl)c1 = inactive
O=C(Nc1ccc(F)cc1F)c1cc(Cl)ccc1O = inactive
Nc1cccc(Nc2cc(S(=O)(=O)O)c(N)c3c2C(=O)c2ccccc2C3=O)c1 = inactive
Nc1n[nH]c2ccc([C@@H]3Nc4ccc5[nH]ncc5c4[C@H]4[C@H]5CCC(C5)[C@H]43)cc12 = inactive

Please examine the following record next.
Data request: How was "O=C(Nc1ccc(N2CCNCC2)cn1)c1[nH]ncc1Nc1ncnc2sc3c(c12)CCC3" classified in this test?
Data returned: active

====

Test system: SF-295 CNS
test_method_notes: NCI-60 one-dose screen, 48 h
experimental_context: 10 µM unless noted
Method: Cells are grown in 96 well plates and exposed to the test compound for 48 hours. Compounds are tested at a single concentration, which is 10^-5 M for most compounds. The reported endpoint is percent growth (GI% or GIPRCNT), where numbers from 0 - 100% represent growth inhibition, and numbers from -100% - 0 represent cell death. For example, a value of 40 represents 60% growth inhibition. A value of 0 means no net growth occurred over the course of the experiment. […]
Compounds without any hit were thinned out: in the full panel of roughly 83,000, 20% have a hit. Calls of active or inactive are those of the source. The calls were made as follows: active = growth percent below 10; inactive = the rest.
The reply should name one outcome from 1.0 (active), 0.0 (inactive)

Below, 5 compounds whose answers are already recorded.
Cc1ccc2nc(NC(=O)CSC(=S)N3CCN(c4ccccc4)CC3)sc2c1 = 0.0
COc1cc(/C=C2\CCC/C(=C\c3cc(CN4CCCCC4)c(O)c(OC)c3)C2=O)cc(CN2CCCCC2)c1O = 0.0
CC1=CCC(OC(=O)C(C)(C)CCC(O)(C(=O)OC2(C(C)C)CCC3(C)OC3C2)C(C)C)(C(C)C)CC1 (stereo not given) = 1.0
O=C1/C(=C/c2ccc(O)cc2)COc2ccc(O)c(O)c21 = 0.0
COc1cc(/C=C/C(=O)c2ccc(Cl)cc2)cc(CN2CCCCC2)c1O = 0.0

Data request: Name the outcome recorded for COc1cc(C2C3=C(COC3=O)N(CCO)c3cc4c(cc32)OCCO4)cc(OC)c1O (stereo not given) in the assay.
Data returned: 1.0

Data request: Request: "CC(=O)n1cc(-c2c[nH]c3ccccc23)c(-c2ccc(Cl)cc2)n1"
Data returned: 0.0

Data request: Could you do the same for "CCOC(=O)c1sc(-c2ccc(OS(=O)(=O)c3ccc(Br)s3)c(C=O)c2)nc1C" , please?
Data returned: 0.0

Data request: # iterate: "COc1ccc(Cn2c(Br)c3c(c2-c2cc(OC)c(OC)c(OC)c2)CCc2sc(NC(C)=O)nc2-3)cc1"
Data returned: 1.0

Data request: Now the compound "CC(=O)c1ccc(Cc2ccc(C(C)=O)s2)s1"
Data returned: 0.0

Data request: Query "O=C(/C=C/c1ccccc1)c1ccc(Nc2nc(NCCO)nc(Nc3ccc(Cl)cc3)n2)cc1" next
Data returned: 0.0

Data request: Another: O=C(CN1C=NC2C(N3CCOCC3)=NC=NC21)c1ccc(Br)cc1 (stereo not given)
Data returned: 0.0

Data request: Also need COc1ccc(/C=c2\sc3n(c2=O)NC2C(N=3)N(C)C(=O)N2C)cc1 (stereo not given) , thanks.
Data returned: 0.0

Data request: What do you have for "Clc1ccc(Oc2ccc(Nc3ncnc4onc(-c5ccccc5)c34)cc2)c(Cl)c1" ?
Data returned: 0.0

Data request: And what about the compound "C[n+]1c2ccccc2nc2ccc(NCCO)cc21" ?
Data returned: 0.0

Data request: Now the compound "c1ccc2c(c1)oc1cc3sccc3nc12"
Data returned: 0.0

Data request: Queued: "CCOc1ccc(Nc2ccnc3cc(Cl)ccc23)cc1"
Data returned: 1.0

Data request: Repeat for the following compound: "CCCN1CCN(c2ccc3nc(-c4ccc5nc(-c6cc(OC)ccc6OC)[nH]c5c4)[nH]c3c2)CC1"
Data returned: 0.0

Data request: Do the same for COc1cc(C2C(C#N)=C(N)OC3=C2C(=O)c2ccccc2C3=O)cc(OC)c1OC (stereo not given) please
Data returned: 0.0

Data request: What do you get for "COc1ccc(-c2nocc2-c2cccs2)cc1" ?
Data returned: 0.0

Data request: Another: COc1cccc(C2=NN3C(C2)c2ccccc2OC3c2ccc(/C=C3\SC(=O)NC3=O)cc2)c1 (stereo not given)
Data returned: 0.0

Data request: Same again, this time with "Cc1c(-c2csc(-n3nc(C(F)(F)F)cc3C(F)(F)F)n2)no[n+]1[O-]"
Data returned: 0.0

Data request: Another compound to look at: "O=C(Nc1ccc(Br)cc1F)c1cc(I)ccc1O"
Data returned: 1.0

Data request: One more compound: "O=C(Nc1ccccc1O)c1ccc(-c2ccc(Cl)cc2Cl)o1"
Data returned: 0.0

Data request: Would you mind doing "COc1ccc2[nH]c(O)c(N=NC(=O)c3oc4ccccc4c3C)c2c1" as well?
Data returned: 1.0

Data request: Quick one: "CCOC(=O)c1ccc(N=Cc2sc(=O)[nH]c2O)cc1"
Data returned: 0.0

Data request: Again, but for CC1(C)CC2(C)OC2C2(C1)N=NC(=Nc1ccccc1)O2 (stereo not given)
Data returned: 0.0

Data request: Input "COc1ccc(Cn2cc(Cn3cc(C=C4C(=O)NC(=O)NC4=O)c4ccccc43)nn2)cc1"
Data returned: 0.0

Data request: Now the compound "CCOc1ccc(-c2nonc2NC(=O)c2cccc(C)c2)cc1OCC"
Data returned: 0.0

Data request: Moving on to the next compound: "Cc1cc(Br)c(N)c(Br)c1"
Data returned: 0.0

====

Test system: MDA-MB-231 breast
test_method_notes: NCI-60 one-dose screen, 48 h (100 = growth as untreated, 0 = no growth, -100 = all killed)
experimental_context: 10 µM unless noted
Experimental: Cells are grown in 96 well plates and exposed to the test compound for 48 hours. Compounds are tested at a single concentration, which is 10^-5 M for most compounds. The reported endpoint is percent growth (GI% or GIPRCNT), where numbers from 0 - 100% represent growth inhibition, and numbers from -100% - 0 represent cell death. For example, a value of 40 represents 60% growth inhibition. A value of 0 means no net growth occurred over the course of the experiment. […]
The panel holds about 83,000 compounds, 20% with a hit somewhere; the sample as a whole holds those more often.
test_readout: growth (%)
Quick reminder: number only, in %, skip the unit.

Reference set, count: 4
Nc1nc(Nc2cccc(F)c2)nc2ccccc12 = 43.7
COc1cc(-c2c3c(c(Br)n2Cc2ccccc2)-c2nc(N)sc2CC3)cc(OC)c1OC = 68.6
O=c1oc2ccc(-c3ccc(F)cc3F)cc2c(=O)n1-c1ccc(Cl)c(C(F)(F)F)c1 = 56
C#CCn1cc(C=C2C(=O)N(C)C(=O)N(C)C2=O)c2cc(Cl)ccc21 = 105

Data request: Name the reported growth value associated with the molecule "CCOC(=O)C(CC(=O)O)=C(C(=O)OCC)C(=O)OCC"
Data returned: 123

Data request: How about this molecule: "Nc1ncnc(N)c1NC(=O)c1ccc(OCc2ccccc2)cc1"
Data returned: 104

Data request: Input "CN1CCN(Cc2ccc(NC(=O)c3cncc(C#Cc4nc(N)nc5[nH]ncc45)c3)cc2C(F)(F)F)CC1"
Data returned: 100

From: PubChem BioAssay (NCI)
